Experiment: Measurement of brain and systemic concentration after oral administration
Assay type: in vivo
Conditions: rat, brain; male wistar rats; oral 100 mg/kg; formulated in 10% PEG400/90% MC0.5%; sampled at 1 h; read-out: brain concentration [B]
measure: log10 concentration at 1 h (log10 of the value in ng/g)
Answers are given as log10 of concentration at 1 h in ng/g.

Cc1ccc(C(=O)N2CCOC[C@H]2Cc2cc(-c3ncccn3)ccc2F)c(-n2nccn2)c1 [Example 156] = 2.79
O=C(c1ccc(C(F)(F)F)cc1-n1nccn1)N1CCOC[C@H]1Cc1cccc(-n2nccn2)c1 [Example 76] = 3.14

Consider now this further compound.
// log10 concentration at 1 h lookup, key: O=C(c1ccc(Cl)cc1-n1nccn1)N1CCOC[C@H]1Cc1cccc(-n2nccn2)c1 [Example 77]
3.21
